# TbMCP-1 Primary screening Inhibition (%) annotations
- Assay system: TbMCP-1 (Trypanosoma brucei, UniProt Q386R0)
- Sequence (Q386R0 entry or part of it): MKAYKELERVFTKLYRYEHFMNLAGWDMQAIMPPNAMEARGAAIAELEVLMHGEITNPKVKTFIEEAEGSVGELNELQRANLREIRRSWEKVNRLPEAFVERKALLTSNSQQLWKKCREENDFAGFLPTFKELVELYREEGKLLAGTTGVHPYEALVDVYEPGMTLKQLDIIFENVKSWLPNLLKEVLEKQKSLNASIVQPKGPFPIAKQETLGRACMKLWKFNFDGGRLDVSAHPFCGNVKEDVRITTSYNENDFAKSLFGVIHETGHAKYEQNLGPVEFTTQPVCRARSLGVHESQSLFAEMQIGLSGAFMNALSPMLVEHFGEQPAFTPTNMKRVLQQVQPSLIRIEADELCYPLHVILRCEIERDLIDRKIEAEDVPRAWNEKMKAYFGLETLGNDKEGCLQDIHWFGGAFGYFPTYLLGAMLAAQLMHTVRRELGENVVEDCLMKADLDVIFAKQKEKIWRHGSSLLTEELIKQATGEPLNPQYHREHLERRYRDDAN
- Test summary: Continuous fluorogenic (FRET) TbMCP-1 assay with Abz-RFFK(Dnp)-OH, primary and secondary screening
- Format: biochemical
- Run conditions: single inhibitor concentration 25 µM

Cl.NS(=O)(=O)c1ccc(Nc2ncc3cccc(OC4CCNCC4)c3n2)cc1    57,82%

Query string: # return TbMCP-1 Primary screening Inhibition (%) of Cc1ccc2c(c1)-c1onc(C(=O)N3CCCCC3c3cccnc3)c1CO2 (centres unmarked) (system: TbMCP-1 (Trypanosoma brucei, UniProt Q386R0))
Result string: 88,97%

Query string: Report measured TbMCP-1 Primary screening Inhibition (%) on TbMCP-1 (Trypanosoma brucei, UniProt Q386R0); entry: `CC(=O)Nc1cccc(Nc2ncnc3nc[nH]c23)c1`
Result string: 43,27%

Query string: State TbMCP-1 Primary screening Inhibition (%) (TbMCP-1 (Trypanosoma brucei, UniProt Q386R0)) of `Cc1cc(C)c(C#N)c(SCC(=O)c2ccc3c(c2)OCO3)n1` .
Result string: 49,55%

Query string: For TbMCP-1 (Trypanosoma brucei, UniProt Q386R0), give TbMCP-1 Primary screening Inhibition (%) of the listed compound: `Cl.Cl.O=c1cc(NCCCNCc2cc(C(F)(F)F)cs2)[nH]c2ccccc12`
Result string: 42,78%

----------
Measured TbMCP-1 2º/1º ratio by item
- Assay system: TbMCP-1 (Trypanosoma brucei, UniProt Q386R0)
- Test summary: Continuous fluorogenic (FRET) TbMCP-1 assay with Abz-RFFK(Dnp)-OH, primary and secondary screening
- Type: biochemical
- Run conditions: secondary (31,5 µM) / primary (25 µM) inhibition

CN(CC1CCCO1)S(=O)(=O)c1ccc(C(=O)Nc2nc(-c3ccccn3)cs2)cc1 (stereo not drawn)    0,99

Query string: # return TbMCP-1 2º/1º ratio of `O=c1[nH]c(C=Cc2cccc(OCCOc3ccccc3)c2)nc(O)c1[N+](=O)[O-]` (system: TbMCP-1 (Trypanosoma brucei, UniProt Q386R0))
Result string: 0,86

Query string: State TbMCP-1 2º/1º ratio on TbMCP-1 (Trypanosoma brucei, UniProt Q386R0). Entry: `Cc1cc(C)c(C#N)c(SCC(=O)c2ccc3c(c2)OCO3)n1`
Result string: 0,35

Query string: Output reported TbMCP-1 2º/1º ratio of the molecule CCn1c(-c2nonc2N)nc2c(C(C)O)ncc(OC(CN)c3ccccc3)c21 (stereo not drawn) on TbMCP-1 (Trypanosoma brucei, UniProt Q386R0).
Result string: 1,00

Query string: Write down measured TbMCP-1 2º/1º ratio (TbMCP-1 (Trypanosoma brucei, UniProt Q386R0)) for this molecule. `C[C@@H](Oc1cc(-n2cnc3ccc(O[C@H]4CCNC4)cc32)sc1C(N)=O)c1ccccc1Cl`
Result string: 1,26

Query string: Jot down TbMCP-1 2º/1º ratio (TbMCP-1 (Trypanosoma brucei, UniProt Q386R0)) of CC1=C(C(=O)Nc2ccc(Cl)cc2)C(c2ccncc2)n2ncc(C(=O)Nc3ccccc3)c2N1 (stereo not drawn) .
Result string: 0,50

Query string: Write TbMCP-1 2º/1º ratio of `CN(C)S(=O)(=O)c1ccc(Cl)c(C(=O)Nc2nc(-c3ccccn3)cs2)c1` ; system used: TbMCP-1 (Trypanosoma brucei, UniProt Q386R0)
Result string: 0,40

Query string: Please report TbMCP-1 2º/1º ratio with TbMCP-1 (Trypanosoma brucei, UniProt Q386R0) for item Fc1ccccc1N1CC2CCN(c3cccnc3)CC2C1 (stereo not drawn) .
Result string: 0,99

Query string: Check TbMCP-1 (Trypanosoma brucei, UniProt Q386R0) data and give TbMCP-1 2º/1º ratio for `COc1ccc2ncc(Cl)c(CCN3CC[C@@H](NCc4cc5c(cn4)OCS5)[C@H](O)C3)c2n1` .
Result string: 0,76

Query string: Please report TbMCP-1 2º/1º ratio with TbMCP-1 (Trypanosoma brucei, UniProt Q386R0) for item Cc1c([N+](=O)[O-])c(C(=O)Nc2sc3c(c2C#N)CCC(C)C3)nn1C (stereo not drawn) .
Result string: 0,23

Query string: Look up and report TbMCP-1 2º/1º ratio, with TbMCP-1 (Trypanosoma brucei, UniProt Q386R0) as system, for `O=C(NCC1CCCCC1)c1cc(=O)c2ccccc2o1`
Result string: -0,05

Query string: Please tell me the measured TbMCP-1 2º/1º ratio for `N#Cc1cc([N+](=O)[O-])ccc1NC1CCCCCC1` ; system: TbMCP-1 (Trypanosoma brucei, UniProt Q386R0).
Result string: 1,61

Query string: Give TbMCP-1 (Trypanosoma brucei, UniProt Q386R0) TbMCP-1 2º/1º ratio for the following molecule: O=C(c1cc2cc(Cl)ccc2[nH]1)N1CCCCC1c1cccnc1 (stereo not drawn)
Result string: 0,25

Query string: Consider the molecule `Cc1c(Nc2cc(C3CC3)n[nH]2)ccc(C#N)c1Cl.O=C(O)C(F)(F)F` tested on TbMCP-1 (Trypanosoma brucei, UniProt Q386R0); state its TbMCP-1 2º/1º ratio.
Result string: 0,63

Query string: Give TbMCP-1 (Trypanosoma brucei, UniProt Q386R0) TbMCP-1 2º/1º ratio for the following molecule: Cl.Cl.O=c1ccc2ccc(F)c3c2n1C[C@H]3CN1CCN(CC(O)c2cc3c(cn2)OCS3)CC1 (stereo partly drawn)
Result string: 1,19

Query string: Given Cc1ccc2c(c1)-c1onc(C(=O)N3CCCCC3c3cccnc3)c1CO2 (stereo not drawn) , report its TbMCP-1 2º/1º ratio on TbMCP-1 (Trypanosoma brucei, UniProt Q386R0).
Result string: 0,78

Query string: For TbMCP-1 (Trypanosoma brucei, UniProt Q386R0), give the measured TbMCP-1 2º/1º ratio of the entry `CC(=O)Nc1cccc(Nc2ncnc3nc[nH]c23)c1`
Result string: 0,19

Query string: Give TbMCP-1 (Trypanosoma brucei, UniProt Q386R0) TbMCP-1 2º/1º ratio for the following molecule: `COc1cc(Nc2nccc(Nc3onc(C)c3C)n2)cc(S(=O)(=O)C2CCOCC2)c1`
Result string: 0,13

----------
Reported pIC50 is given for each of the following compounds.
- Assay system: TcMCP-1 (Trypanosoma cruzi)
- Test summary: Continuous fluorogenic (FRET) TcMCP-1 assay with Abz-LKFK(Dnp)-OH, primary and secondary screening
- Format: biochemical
- Run conditions: secondary screening, two-fold dilutions 7,5 pM to 62,5 μM, KM/[S] ~ 1, no replicates
pIC50: −log10 of the molar value.

Example entries and their recorded answers appear below.
N#Cc1ccc(S(=O)(=O)N2CCN(Cc3cccc(-c4ccncc4)c3)CC2)cc1 [TCMDC-143620]    ≥ 5.00
O=c1[nH]c(C=Cc2cccc(OCCOc3ccccc3)c2)nc(O)c1[N+](=O)[O-] [TCMDC-143209]    ≥ 5.00

Query string: // fetch pIC50 given entry Fc1ccccc1N1CC2CCN(c3cccnc3)CC2C1 (centres unmarked) [TCMDC-143422]
Result string: ≥ 5.00

Query string: Please report pIC50 for the following compound: O=C(Nc1nc2cc(Cl)ccc2o1)c1cccc(Cl)c1 [TCMDC-143172]
Result string: ~5.00

Query string: Name the recorded pIC50 of the compound listed here: CCOC(=O)c1cn[nH]c1S(=O)(=O)N1CCC1c1ccccc1 (centres unmarked) [TCMDC-143456]
Result string: ≥ 5.00

----------
- Assay system: TcMCP-1 (Trypanosoma cruzi)
- Test summary: Continuous fluorogenic (FRET) TcMCP-1 assay with Abz-LKFK(Dnp)-OH, primary and secondary screening
- Type: biochemical
- Run conditions: single inhibitor concentration 31,5 µM
Listed below: TcMCP-1 Secondary screening Inhibition (%) values for each entry.

Example entries begin here.
CN(C)c1ccc(-c2cc3nccnc3c(OC[C@H]3CCCNC3)n2)cn1.Cl    49,75%
O=C(Nc1nc2cc(Cl)ccc2o1)c1cccc(Cl)c1    84,56%
CC(Cn1ccnc1)NC(=O)COc1ccc(Cl)c(Cl)c1 (centres unmarked)    13,15%
CC(C)Oc1ccc(C(=O)Nc2ccc(N3CCOCC3)c(Cl)c2)cc1    58,11%

Continue with the molecule presented below.
Query string: Look up and state reported TcMCP-1 Secondary screening Inhibition (%) for COc1cccc(S(=O)(=O)Nc2ccc3c(c2)CC(N2CCC(NC(=O)C4CC4)CC2)C3)c1 (centres unmarked)
Result string: -11,25%

----------
- Assay system: TcMCP-1 (Trypanosoma cruzi, UniProt Q6ZXC0)
- Sequence (Q6ZXC0 entry or part of it): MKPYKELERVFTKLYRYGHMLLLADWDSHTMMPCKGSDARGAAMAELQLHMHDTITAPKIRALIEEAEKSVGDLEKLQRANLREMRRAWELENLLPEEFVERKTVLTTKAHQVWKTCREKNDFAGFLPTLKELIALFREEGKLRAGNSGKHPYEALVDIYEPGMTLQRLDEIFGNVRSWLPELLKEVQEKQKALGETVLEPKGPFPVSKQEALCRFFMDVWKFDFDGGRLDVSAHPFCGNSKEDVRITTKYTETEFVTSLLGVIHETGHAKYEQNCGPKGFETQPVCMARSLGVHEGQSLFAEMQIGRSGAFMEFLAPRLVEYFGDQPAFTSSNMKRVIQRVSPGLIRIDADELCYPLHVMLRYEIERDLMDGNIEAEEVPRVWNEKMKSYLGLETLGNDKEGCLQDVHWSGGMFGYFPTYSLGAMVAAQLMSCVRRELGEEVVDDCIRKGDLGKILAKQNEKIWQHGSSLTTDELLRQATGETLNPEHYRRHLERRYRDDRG
- Test summary: Continuous fluorogenic (FRET) TcMCP-1 assay with Abz-LKFK(Dnp)-OH, primary and secondary screening
- Assay type: biochemical
- Set-up: dose or concentration left out as unconfirmed
- Run conditions: read-out: TcMCP-1 Secondary screening Inhibition (%)
Respond with YES for inhibition values of 90% and above, NO for values below.

CS(=O)(=O)c1cccc(CNC(=O)c2cncc(N3CCN(c4ccc(F)cc4)CC3)c2)c1 [TCMDC-143385]    NO
N#Cc1ccc(S(=O)(=O)N2CCN(Cc3cccc(-c4ccncc4)c3)CC2)cc1 [TCMDC-143620]    YES
CCOC(=O)c1cn[nH]c1S(=O)(=O)N1CCC1c1ccccc1 (centres unmarked) [TCMDC-143456]    YES

Okay, now this molecule:
Query string: Exam item: decide whether the reported inhibition for Fc1ccccc1N1CC2CCN(c3cccnc3)CC2C1 (centres unmarked) [TCMDC-143422] is at least 90%.
Result string: YES
